Data credit: ChEMBL document CHEMBL1124046

Test: Ratio of NMS/oxo-M apparent binding affinities (Kapp)
// values below are reported Ratio
Form field (numeric): enter value without unit.

// solved cases for Ratio follow
### Prompt Annotate the compound CCN1C(=O)CC2(CCN(C)CC2)C1=O with its measured Ratio.
### Response 130

### Prompt Annotate the compound CC1OCC2(CCNCC2)O1 (stereo not given) with its measured Ratio.
### Response 470

### Prompt Annotate the compound CCC1OCC2(CCN(C)CC2)O1 (stereo not given) with its measured Ratio.
### Response 24

### Prompt Annotate the compound C[C@H]1OCC2(CN3CCC2CC3)O1 (stereo not given in full) with its measured Ratio.
### Response 140

Others:
### Prompt Annotate the compound C[N+](C)(C)CCOC(N)=O with its measured Ratio.
### Response 4100
